Measured IC50 of individual entries
- TARGET_SYSTEM: Recombinant human PKC-theta (His-tagged 362-706) (Homo sapiens, UniProt Q04759)
- Construct: Recombinant human PKC-theta (His-tagged 362-706); His
- Sequence (Q04759 362-706): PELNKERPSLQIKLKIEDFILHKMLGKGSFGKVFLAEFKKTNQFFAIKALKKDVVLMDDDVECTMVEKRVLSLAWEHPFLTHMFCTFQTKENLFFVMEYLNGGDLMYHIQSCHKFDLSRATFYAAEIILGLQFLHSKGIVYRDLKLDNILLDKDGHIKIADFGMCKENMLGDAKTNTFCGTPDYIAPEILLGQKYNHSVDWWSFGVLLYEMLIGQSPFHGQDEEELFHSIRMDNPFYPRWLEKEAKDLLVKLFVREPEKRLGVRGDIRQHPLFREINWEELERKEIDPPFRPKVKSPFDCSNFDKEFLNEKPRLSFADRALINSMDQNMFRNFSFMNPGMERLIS
- ASSAY_INFO: PKC-theta inhibition assay (HTRF KinEASE kit)
- Type: biochemical
- PROTOCOL_CONDITIONS: ATP 6.5 μM; STK substrate 525 nM; binned A to H; read-out: PKC-theta HTRF pIC50 (binned) (converted)
PROPERTY_NAME: IC50

[[record]]
compound = "CC[C@]1(C)C(=O)Nc2nccc(-c3cc(C(F)(F)F)cc(N4CCN[C@@H](C)C4)n3)c21 (single isomer, unassigned)"
assay_result = "1 to 3.16 nM"

[[record]]
compound = "CC1C(=O)Nc2nccc(-c3cccc(C(=O)N4CCNCC4)c3)c21 (stereo not shown)"
assay_result = "316 to 1000 nM"

[[record]]
compound = "C[C@]1(O)C(=O)Nc2nccc(-c3cc(F)cc(N4CCNCC4)c3)c21 (single isomer, unassigned)"
assay_result = "3.16 to 10 nM"

[[record]]
compound = "C[C@@]1(O)C(=O)Nc2nccc(-c3cc(C(F)(F)F)cc(N4CCNC(CF)C4)n3)c21 (single isomer, unassigned)"
assay_result = "3.16 to 10 nM"

[[record]]
compound = "CC(C)[C@H]1CN(c2cccc(-c3ccnc4c3C(C)(C)C(=O)N4)c2)CCN1"
assay_result = "31.6 to 100 nM"

[[record]]
compound = "CC1(C)C(=O)Nc2nccc(-c3cccc(C4(CN)COC4)c3)c21"
assay_result = "100 to 316 nM"

[[record]]
compound = "CC1(O)C(=O)Nc2nccc(-c3cc(N4CCNCC4)cc(C(F)(F)F)c3)c21 (stereo not shown)"
assay_result = "10 to 31.6 nM"

[[record]]
compound = "CC1C(=O)Nc2nccc(-c3cc(N4CCNCC4)cc(C(F)(F)F)c3)c21 (stereo not shown)"
assay_result = "31.6 to 100 nM"

[[record]]
compound = "CC1(C)C(=O)Nc2nccc(-c3cc(Cl)cc(N4CCNCC4)n3)c21"
assay_result = "1 to 3.16 nM"

[[record]]
compound = "CC1(C)C(=O)Nc2nccc(-c3cc(C#N)cc(N4CCNCC4)c3)c21"
assay_result = "100 to 316 nM"

[[record]]
compound = "O=c1[nH]c2nccc(-c3ccnc(N4CCNCC4)c3)c2[nH]1"
assay_result = "316 to 1000 nM"

[[record]]
compound = "CC1(C)C(=O)Nc2nccc(-c3cc(C(F)(F)F)cc(N4CC5CC4CN5)n3)c21 (stereo not shown)"
assay_result = "10 to 31.6 nM"

[[record]]
compound = "C[C@@H]1CN[C@@H](C)CN1c1cc(C(F)(F)F)cc(-c2ccnc3c2C(C)(C)C(=O)N3)n1"
assay_result = "3.16 to 10 nM"

[[record]]
compound = "C[C@H]1CNCCN1c1cccc(-c2ccnc3c2C(C)(C)C(=O)N3)c1"
assay_result = "100 to 316 nM"

[[record]]
compound = "CC[C@H]1CN(c2cccc(-c3ccnc4c3C(C)(C)C(=O)N4)c2)CCN1"
assay_result = "31.6 to 100 nM"

[[record]]
compound = "C[C@@]1(O)C(=O)Nc2nccc(-c3cc(C(F)(F)F)cc(N4CCNC(CC(F)(F)F)C4)n3)c21 (stereo partly shown)"
assay_result = "10 to 31.6 nM"

[[record]]
compound = "CC1(O)C(=O)Nc2nccc(-c3cc(N4CCNCC4)ccc3F)c21 (stereo not shown)"
assay_result = "100 to 316 nM"

[[record]]
compound = "C[C@H]1CNCCN1c1cc(C(F)(F)F)cc(-c2ccnc3c2C(C)(C)C(=O)N3)n1"
assay_result = "3.16 to 10 nM"

[[record]]
compound = "CO[C@]1(C)C(=O)Nc2nccc(-c3cc(C(F)(F)F)cc(N4CCNC[C@H]4C)n3)c21 (single isomer, unassigned) [Example 176]"
assay_result = "10 to 31.6 nM"

[[record]]
compound = "CC[C@H]1CN(c2cc(Cl)cc(-c3ccnc4c3[C@@](C)(OC)C(=O)N4)n2)CCN1 (single isomer, unassigned) [Example 152]"
assay_result = "3.16 to 10 nM"

[[record]]
compound = "C[C@@H]1CN(c2cc(Cl)cc(-c3ccnc4c3C(C)(O)C(=O)N4)n2)CCN1 (stereo partly shown)"
assay_result = "3.16 to 10 nM"

[[record]]
compound = "CC[C@H]1CN(c2cc(C(F)(F)F)cc(-c3ccnc4c3C(C)(C)C(=O)N4)n2)CCN1"
assay_result = "1 to 3.16 nM"

[[record]]
compound = "CC(F)(F)c1cc(-c2c(F)cnc3c2C(C)(C)C(=O)N3)nc(N2CCNCC2)c1"
assay_result = "31.6 to 100 nM"

[[record]]
compound = "O=c1[nH]c2nccc(-c3cccc(CN4CCNCC4)c3)c2[nH]1"
assay_result = "> 1000 nM"

[[record]]
compound = "CO[C@]1(C)C(=O)Nc2nccc(-c3cc(C(C)(F)F)cc(N4CCNC[C@H]4C)n3)c21 (single isomer, unassigned)"
assay_result = "3.16 to 10 nM"

[[record]]
compound = "C[C@@]1(O)C(=O)Nc2nccc(-c3cc(F)cc(N4CCNCC4)c3)c21 (single isomer, unassigned)"
assay_result = "316 to 1000 nM"

[[record]]
compound = "Cc1cc(-c2ccnc3c2C(C)(C)C(=O)N3)cc(N2CCNCC2)c1"
assay_result = "31.6 to 100 nM"

[[record]]
compound = "CC[C@H]1CN(c2cc(Cl)cc(-c3ccnc4c3C(C)(C)C(=O)N4)n2)CCN1"
assay_result = "0.316 to 1 nM"

[[record]]
compound = "C[C@@]1(O)C(=O)Nc2nccc(-c3cc(Cl)cc(N4CCNC(CC(F)(F)F)C4)n3)c21 (single isomer, unassigned)"
assay_result = "3.16 to 10 nM"

[[record]]
compound = "CC1(C)C(=O)Nc2nccc(-c3cccc(C4CCNCC4)c3)c21"
assay_result = "100 to 316 nM"

[[record]]
compound = "C[C@@H]1CN(c2cc(C(F)(F)F)cc(-c3ccnc4c3C(C)(C)C(=O)N4)n2)[C@@H](C)CN1"
assay_result = "10 to 31.6 nM"


###

- TARGET_SYSTEM: Recombinant human PKC-theta (His-tagged 362-706) (Homo sapiens, UniProt Q04759)
- Construct: Recombinant human PKC-theta (His-tagged 362-706); His
- ASSAY_INFO: PKC-theta inhibition assay (HTRF KinEASE kit)
- Format: biochemical
- PROTOCOL_CONDITIONS: ATP 6.5 μM; STK substrate 525 nM; read-out: PKC-theta HTRF pIC50 (converted)
PROPERTY_NAME: log10 IC50 (log10 of the value in µM)

[[record]]
molecule = "CC1(C)C(=O)Nc2nccc(-c3cc(C(F)(F)F)cc(N4CCNCC4)n3)c21 [Example 66]"
property_name = "log10 IC50"
assay_result = -2.30

[[record]]
molecule = "CC[C@H]1CN(c2cc(Cl)cc(-c3ccnc4c3[C@@](C)(OC)C(=O)N4)n2)CCN1 (single isomer, unassigned) [Example 151]"
property_name = "log10 IC50"
assay_result = -1.90

[[record]]
molecule = "CC(c1cccc(-c2ccnc3[nH]c(=O)[nH]c23)c1)N(C)C (centres unmarked) [Example 1]"
property_name = "log10 IC50"
assay_result = -0.30

[[record]]
molecule = "C[C@H]1NCCN(c2cc(C(F)(F)F)cc(-c3ccnc4c3C(C)(C)C(=O)N4)n2)[C@H]1C [Example 168]"
property_name = "log10 IC50"
assay_result = -3.30

[[record]]
molecule = "O=c1[nH]c2nccc(-c3cc(C(F)(F)F)cc(N4CCNCC4)n3)c2[nH]1 [Example 68]"
property_name = "log10 IC50"
assay_result = -1.50

[[record]]
molecule = "CC[C@@H]1CN(c2cc(C(F)(F)F)cc(-c3ccnc4c3C(C)(O)C(=O)N4)n2)CCN1 (some centres unmarked) [Example 72]"
property_name = "log10 IC50"
assay_result = -1.60

[[record]]
molecule = "C[C@@H]1CNCCN1c1cc(Cl)cc(-c2ccnc3c2C(C)(C)C(=O)N3)n1 [Example 140]"
property_name = "log10 IC50"
assay_result = -2.80

[[record]]
molecule = "CC1C(=O)Nc2nccc(-c3cccc(N4CCNCC4)c3)c21 (centres unmarked) [Example 5]"
property_name = "log10 IC50"
assay_result = -1.10

